Molecular target: CXCR3 (Homo sapiens, UniProt P49682)
Construct: ChemoCentryx
Sequence (P49682 1-368): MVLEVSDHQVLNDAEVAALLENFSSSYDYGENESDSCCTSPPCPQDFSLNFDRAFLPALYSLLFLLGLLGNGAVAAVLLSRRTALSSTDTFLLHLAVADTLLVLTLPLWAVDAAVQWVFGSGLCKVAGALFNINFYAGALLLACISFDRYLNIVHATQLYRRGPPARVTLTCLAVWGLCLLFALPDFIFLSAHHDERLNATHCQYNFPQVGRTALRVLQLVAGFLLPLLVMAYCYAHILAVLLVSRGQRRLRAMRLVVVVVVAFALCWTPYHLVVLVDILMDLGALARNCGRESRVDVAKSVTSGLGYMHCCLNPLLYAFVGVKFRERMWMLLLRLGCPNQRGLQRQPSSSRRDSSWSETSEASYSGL
Assay: CXCR3 binding assay in binding buffer (125I-labelled chemokine, CXCR3-expressing cells)
Settings: absence of human plasma
PARAMETER_MEASURED: pIC50
// pIC50 is dimensionless: -log10 of concentration (M)

[
  {
    "COMPOUND_STRUCTURE_STRING": "CCS(=O)(=O)CCN(C(=O)Cc1ccc(F)c(C(F)(F)F)c1)[C@H](C)c1nc2ncccn2c1-c1ccc(O)cc1",
    "MEASURED_TARGET": "CXCR3 (Homo sapiens, UniProt P49682)",
    "PARAMETER_MEASURED": "pIC50",
    "READOUT_NUMBER": 5.00
  },
  {
    "COMPOUND_STRUCTURE_STRING": "CCS(=O)(=O)CCN(C(=O)Cc1ccc(F)c(C(F)(F)F)c1)[C@H](C)c1nc2ncccn2c1-c1ccc(C#N)cc1",
    "MEASURED_TARGET": "CXCR3 (Homo sapiens, UniProt P49682)",
    "PARAMETER_MEASURED": "pIC50",
    "READOUT_NUMBER": 8.00
  },
  {
    "COMPOUND_STRUCTURE_STRING": "CCS(=O)(=O)CCN(C(=O)Cc1ccc(F)c(C(F)(F)F)c1)[C@H](C)c1nc2ccccn2c(=O)c1-c1ccc(O)cc1",
    "MEASURED_TARGET": "CXCR3 (Homo sapiens, UniProt P49682)",
    "PARAMETER_MEASURED": "pIC50",
    "READOUT_NUMBER": 6.09
  },
  {
    "COMPOUND_STRUCTURE_STRING": "CCOc1ccc(-c2c([C@@H](C)N(CCS(=O)(=O)CC)C(=O)Cc3ccc(F)c(C(F)(F)F)c3)nc3ncccn23)cc1",
    "MEASURED_TARGET": "CXCR3 (Homo sapiens, UniProt P49682)",
    "PARAMETER_MEASURED": "pIC50",
    "READOUT_NUMBER": 8.40
  },
  {
    "COMPOUND_STRUCTURE_STRING": "CCOc1ccc(-n2c([C@@H](C)N(CCS(=O)(=O)CC)C(=O)Cc3ccc(F)c(C(F)(F)F)c3)nc3ncccc3c2=O)cc1",
    "MEASURED_TARGET": "CXCR3 (Homo sapiens, UniProt P49682)",
    "PARAMETER_MEASURED": "pIC50",
    "READOUT_NUMBER": 9.00
  }
]

// switching to the query compound
Which pIC50 value is on record for "CCOc1ccc(-c2c([C@@H](C)N(CCS(=O)(=O)CC)C(=O)Cc3ccc(F)c(C(F)(F)F)c3)nc3ccccn3c2=O)cc1" ?
9.00
